pIC50 values for the molecules below.
# Tgt: Human ENPP-1 (Homo sapiens, UniProt P22413)
# Sequence (P22413 whole entry): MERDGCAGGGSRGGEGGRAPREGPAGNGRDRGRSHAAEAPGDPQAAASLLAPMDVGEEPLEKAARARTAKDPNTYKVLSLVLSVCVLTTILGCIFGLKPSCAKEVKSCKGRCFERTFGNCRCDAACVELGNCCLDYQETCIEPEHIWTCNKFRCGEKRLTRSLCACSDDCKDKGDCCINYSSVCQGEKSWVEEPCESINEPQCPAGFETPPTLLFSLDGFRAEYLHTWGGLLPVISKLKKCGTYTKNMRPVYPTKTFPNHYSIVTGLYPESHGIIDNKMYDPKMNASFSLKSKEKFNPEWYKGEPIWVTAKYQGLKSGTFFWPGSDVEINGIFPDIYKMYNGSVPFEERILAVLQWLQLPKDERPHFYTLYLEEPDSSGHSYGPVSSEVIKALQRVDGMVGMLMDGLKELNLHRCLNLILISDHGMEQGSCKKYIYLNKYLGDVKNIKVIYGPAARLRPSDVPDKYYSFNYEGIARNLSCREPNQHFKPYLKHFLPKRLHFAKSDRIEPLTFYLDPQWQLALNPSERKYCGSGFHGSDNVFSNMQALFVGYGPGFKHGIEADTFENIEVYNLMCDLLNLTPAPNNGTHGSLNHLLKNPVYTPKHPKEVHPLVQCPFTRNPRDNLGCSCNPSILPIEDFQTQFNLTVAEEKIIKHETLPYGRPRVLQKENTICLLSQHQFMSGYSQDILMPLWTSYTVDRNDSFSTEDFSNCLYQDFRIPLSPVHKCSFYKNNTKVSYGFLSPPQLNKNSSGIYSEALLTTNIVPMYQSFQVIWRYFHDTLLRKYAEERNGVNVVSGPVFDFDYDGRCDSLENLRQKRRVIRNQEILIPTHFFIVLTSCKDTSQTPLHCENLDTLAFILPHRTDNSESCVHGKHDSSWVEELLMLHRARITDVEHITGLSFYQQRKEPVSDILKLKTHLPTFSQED
# Experimental Details: ENPP-1 Inhibition Assay (cGAMP substrate, AMP Glo luminescence)
# Assay type: biochemical
# Experimental Context: racemate and enantiomers separated by chiral HPLC; Human ENPP-1 3 nM, 5 μM cGAMP, pH 7.4, 40 μM HSA; read-out: IC50 value range (enantiomers of SAPTI012S006)
pIC50: −log10 of the molar value.

Some solved entries appear below for comparison.
Give the measured pIC50 for COc1cc2ncnc(N=S(C)(=O)c3ccc(B(O)O)cc3)c2cc1OC (single isomer, unassigned) [SAPTI012S006-E2]
> 7.00

Supply pIC50 value. Item: COc1cc2ncnc(N=S(C)(=O)c3ccc(B(O)O)cc3)c2cc1OC (racemic) [SAPTI012S006]
> 7.00

Continuing:
In one line, give reported pIC50 of the entry COc1cc2ncnc(N=S(C)(=O)c3ccc(B(O)O)cc3)c2cc1OC (single isomer, unassigned) [SAPTI012S006-E1] .
< 7.00
